Test system: Huh-7 cells, genotype 1b HCV replicon
assayProtocol: Inhibition of HCV replication in cell culture, genotype 1b replicon
Format: cell-based, hepatitis C virus
settings: Huh-7, genotype 1b replicon; intracellular HCV RNA 24 h after 3 daily doses; read-out: EC50
readoutName: EC50

Looking up Cc1ccc(NC(=O)[C@H](CCCCN)NC(=O)Nc2ccc3c(c2)Cc2ccccc2-3)cc1 , I found its EC50 recorded as > 2000 nM

###

IC50, HCV RdRp (NS5B) (UniProt P26663): measured values

Example entries begin here.
| compound | measuredValue |
| --- | --- |
| Cc1ccc(NC(=O)[C@H](CCCCN)NC(=O)COc2ccc(Oc3ccccc3)cc2)cc1 | > 50 µM |
| Cc1ccc(NC(=O)[C@H](CCCCN)NC(=O)CNCc2ccc(F)cc2)cc1 | > 50 µM |
| Cc1ccc(NC(=O)[C@H](CCCCN)NS(=O)(=O)c2cc(Cl)sc2Cl)cc1 | > 50 µM |
| Cc1ccc(NC(=O)C(CC(=O)O)NC(=O)OCC2c3ccccc3-c3ccccc32)cc1 (centres unmarked) [Compound 370] | > 50 µM |

Okay, now this compound:
Reported HCV RdRp (NS5B) (UniProt P26663) IC50 for item Cc1ccc(NC(=O)[C@H](CCCCN)NC(=O)NCc2ccc(Cl)c(Cl)c2)cc1 was 10 to 50 µM

###

IC50, UniProt P26663: measured values

Looking up CC(C)(C)OC(=O)NCCCC[C@H](N)C(=O)N(Cc1ccccc1)C1CCCCC1 , I found its IC50 recorded as 10 to 50 µM

Looking up Cc1ccc(NC(=O)[C@H](CCCCN)NS(=O)(=O)c2ccc(Cl)cc2Cl)cc1 , I found its IC50 recorded as > 50 µM

Looking up COc1cc2ccccc2cc1C(=O)NC(CCCCN)C(=O)Nc1ccc(C)cc1 (stereo not shown) , I found its IC50 recorded as > 50 µM

Looking up Cc1ccc(NC(=O)C(CCCCN)NC(=O)Nc2ccc(-c3ccccc3)cc2)cc1 (stereo not shown) [Compound 40] , I found its IC50 recorded as 10 to 50 µM

###

Tested on: Huh-7 cells, sub-genomic genotype 1a HCV replicon H/SG-Neo
assayProtocol: Inhibition of HCV replication in cell culture, genotype 1a replicon
Format: cell-based, hepatitis C virus
settings: genotype 1a replicon; CC50 by neutral red uptake
// values below are reported Selectivity Index (CC50/EC50)

| compound | subjectOfTest | Selectivity Index (CC50/EC50) |
| --- | --- | --- |
| Cc1ccc(NC(=O)[C@H](CCCCN)NC(=O)Nc2ccc(OCc3ccccc3)cc2)cc1 [Compound 2] | Huh-7 cells, sub-genomic genotype 1a HCV replicon H/SG-Neo | 20 to 100 |
| Cc1cc2cc(NC(=O)[C@H](CCCCN)NC(=O)Nc3ccc(OCc4ccccc4)cc3)ccc2[nH]1 [Compound 206] | Huh-7 cells, sub-genomic genotype 1a HCV replicon H/SG-Neo | <20 |
| Cc1ccc(NC(=O)[C@@H](CCCCN)NC(=O)Nc2ccc(OCc3ccccc3)cc2)cc1 [Compound 172] | Huh-7 cells, sub-genomic genotype 1a HCV replicon H/SG-Neo | 20 to 100 |

Okay, now this compound:
Looking up Cc1cc2cc(NC(=O)[C@H](CCCNC(=O)CN)NC(=O)Nc3ccc4c(c3)Cc3ccccc3-4)ccc2[nH]1 [Compound 297] , I found its Selectivity Index (CC50/EC50) recorded as >100
